Test system: Amaranthus retroflexus
Assay: Farming soil treatment test
Type: in vivo
Conditions: 10g a.i./10a; soil surface spray prior to weed growth, 30 days
Measured Amaranthus retroflexus herbicidal efficacy (growth inhibition level) by item

[
  {
    "compound": "C#CCN(C(=O)C(F)(F)F)c1c(C#N)cnn1-c1nn2c(c1Cl)CCCC2 [Control agent 4.239, reference compound]",
    "measured": "5 (5: 50% to less than 60%)"
  },
  {
    "compound": "C=C(Cl)CN(C(=O)C(F)(F)F)c1c(C#N)cnn1-c1nn2c(c1Cl)CCCC2",
    "measured": "10 (10: 100%)"
  },
  {
    "compound": "C=CCNc1c(C#N)cnn1-c1nn2c(c1Cl)CCCC2 [Control agent 4.59, reference compound]",
    "measured": "6 (6: 60% to less than 70%)"
  }
]

Input line: So what's the measured Amaranthus retroflexus herbicidal efficacy (growth inhibition level) for this one? CC=CCNc1c(C#N)cnn1-c1nn2c(c1Cl)CCCC2 (mixture of isomers)
Output line: 10 (10: 100%)

Input line: Which Amaranthus retroflexus herbicidal efficacy (growth inhibition level) value belongs to C=CCN(CC)c1c(C#N)cnn1-c1nn2c(c1Cl)CCCC2 [Control agent 4.75, reference compound] ?
Output line: 6 (6: 60% to less than 70%)

Input line: Please report the recorded Amaranthus retroflexus herbicidal efficacy (growth inhibition level) for C#CCNc1c(C#N)cnn1-c1nn2c(c1Cl)CCCC2 [Control agent 4.85, 4.156, reference compound] .
Output line: 6 (6: 60% to less than 70%)

Input line: I would be grateful if you could share the reported Amaranthus retroflexus herbicidal efficacy (growth inhibition level) for C=C(Cl)CNc1c([N+](=O)[O-])cnn1-c1nn2c(c1Cl)CCCC2 .
Output line: 10 (10: 100%)
